# experiment_summary: melting temperature; fluorescence melt of hairpins on a sequencing array, two-state fit, raised by 9.35 °C to match UV melts
# experimental_parameters: sodium 0.088 M
Recorded Tm, one value per entry.
A number alone suffices; assume °C.

// known answers, use as guide
>  <residues>
GTCTGGCCGAAAGGCGAC (((..(((....))))))

>  <Tm [°C]>
43.9

$$$$
>  <residues>
GCATGGCGAAAGCGACGC ((.(.((....)).).))

>  <Tm [°C]>
38.3

$$$$

q: Data request, read-out Tm, for GGCGTACCGAAAGGTGCC (((..(((....))))))
a: 54.7

q: What would you report for GTGAACCGAAAGGTGCAC (((.(((....))).))) ?
a: 60.7

q: Same lookup for GCACACGGAAACGTGTAC (.(((((....))))).) , please.
a: 41.2

q: Please do the same for GGTACAGCGAAAGCTACC (((..(((....)))))) as well.
a: 38.1

q: GATCGCCAGGGCGATC ((((((....)))))) , same question.
a: 68.3

q: Next sequence up: GCCGGGACGAAAGTCGGC (((..(((....))))))
a: 60.9

q: Would you kindly repeat that for GTCGGCGAAAGCCCCGAC ((((((....)))..))) ?
a: 41.8

q: Can you check GCCATCGGAAACGACGGC (((.(((....))).))) next?
a: 52.1

q: Please answer likewise for GATCAACAATTGATC ((((((...))))))
a: 33.4

q: Follow-up entry: GATCCAGCGATGGATC ((((((....))))))
a: 55.6

Attribution: the array DNA melting data of Ke et al. (doi:10.1101/2024.01.08.574731)
